Data provenance is PubChem BioAssay (NCI).

protocolNotes: NCI Yeast Anticancer Drug Screen. Data for the cln2 rad14 strain (AID 165);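 further: 0% = growth equal to vehicle treated cultures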
appliedConditions: S. cerevisiae cln2 rad14 strain, at 50.0 µM, hits give high values
This is part of a sample that, as a whole, favours compounds with a hit. Of some 79,000 tested, about 15% had one in any assay.
Measured growth inhibition, listed per entry for reference.
measurementKind: growth inhibition (%)

INSERT INTO results (compound, measurementkind, unitannotation, observedresult) VALUES
  ('C=C(C)c1nn(-c2ccccc2)c2c1C(=O)CC(C)O2 (stereo not given)', 'growth inhibition', '%', 29.2),
  ('CCCCC[N+](CCCCC)(CCCCC)CCCCC', 'growth inhibition', '%', 8.4),
  ('Clc1cccc(Cl)c1/C=N/Nc1nnc(N/N=C/c2c(Cl)cccc2Cl)c2ccccc12', 'growth inhibition', '%', 31.5),
  ('COc1ccc(/C=N/NC(=O)c2ccc(N)cc2)cc1', 'growth inhibition', '%', -15.9),
  ('Clc1cc(OCC23CC4CC(CC(C4)C2)C3)nc(OCC23CC4CC(CC(C4)C2)C3)n1', 'growth inhibition', '%', -4.8),
  ('O=C(NC(C(=O)O)c1ccccc1)c1ccc([N+](=O)[O-])cc1 (stereo not given)', 'growth inhibition', '%', -0.6),
  ('CC1OC(O[C@H]2CC[C@]3(C)[C@H]4CC=C5[C@@H]6[C@@H](C)[C@H](C)CC[C@]6(C(=O)O)CC[C@@]5(C(=O)O)[C@]4(C)CC[C@H]3C2(C)C)C(O)C(O)C1O (stereo not given in full)', 'growth inhibition', '%', -5.7),
  ('COc1cccc2c(Nc3ccc(S(=O)(=O)Nc4ncccn4)cc3)c3ccc([N+](=O)[O-])cc3nc12', 'growth inhibition', '%', 11.2),
  ('O=C1OC(=O)C2C3C=CC(C3)C12 (stereo not given)', 'growth inhibition', '%', -20.4),
  ('O=C1CC[C@@H](C(=O)Nc2cccc3ccccc23)N1', 'growth inhibition', '%', -24.4),
  ('N=c1ccc2ccccc2n1O', 'growth inhibition', '%', -49.1),
  ('O=C(O)Cc1ccc(-c2ccccc2)[nH]1', 'growth inhibition', '%', -25.8),
  ('Nc1ccc(F)cc1C(F)(F)F', 'growth inhibition', '%', -7.75),
  ('O=C(C(c1ccccc1)c1ccccc1)N(CCO)c1ccccc1', 'growth inhibition', '%', -9.5),
  ('[N-]=[N+]=Nc1ccnc2cc(C(F)(F)F)ccc12', 'growth inhibition', '%', -36.7),
  ('O=C(O)CSc1n[nH]c(-c2ccco2)n1', 'growth inhibition', '%', 14.1),
  ('O=C(O)Cn1c[n+](NC(=O)Cc2ccccc2)cn1', 'growth inhibition', '%', -41.8),
  ('Nc1ccc2ccc3ccc(N)nc3c2n1', 'growth inhibition', '%', -1.8),
  ('COc1cccc(C2C3=C(COC3=O)Oc3cc4c(cc32)OCO4)c1 (stereo not given)', 'growth inhibition', '%', -1.6),
  ('Cc1ccc([N+](=O)[O-])cc1NC(=O)C(=O)Cc1cc(=O)oc2cc(O)ccc12', 'growth inhibition', '%', 23.9),
  ('O=c1ccc(=O)c2c(=O)c3cc4[nH]c5ccccc5[nH]c4cc3c(=O)c12', 'growth inhibition', '%', 1.85),
  ('CC(C)(C)c1ccc(OC(=O)NCCCCCCNC(=O)Oc2ccc(C(C)(C)C)cc2)cc1', 'growth inhibition', '%', 92.3),
  ('CCOC(=O)CC[C@H](NC(=O)c1[nH]cnc1/N=N/N(C)C)C(=O)OCC', 'growth inhibition', '%', 3.7),
  ('C[N+]1=C(/C=C/c2ccnc3c(O)cccc23)C(C)(C)c2ccccc21', 'growth inhibition', '%', -60.4),
  ('COc1ccc(NC=O)c(C(O)CCNC(C)=O)c1 (stereo not given)', 'growth inhibition', '%', 0.45),
  ('O=C1C(c2[nH]c3ccc(F)cc3c2O)=Nc2ccc(F)cc21', 'growth inhibition', '%', 9.4),
  ('O=C1C=C(Nc2ccccc2C(=O)c2ccccc2)c2ccccc2C1=O', 'growth inhibition', '%', 4.9),
  ('CC(=O)N1C(OC(C)C)CC(C)N1c1ccccc1 (stereo not given)', 'growth inhibition', '%', 3.35),
  ('CNc1ccc(Oc2ccccc2)cc1[N+](=O)[O-]', 'growth inhibition', '%', -34.6),
  ('[N-]=[N+]=NC[C@H]1OCO[C@H](CN=[N+]=[N-])[C@@H](OCCOCCCl)[C@@H]1OCCOCCCl', 'growth inhibition', '%', -21.1),
  ('CCCC(=O)Nc1cc(/C=C/C(=O)N2C[C@H]3C[C@@]34C2=CC(=O)c2[nH]cc(C)c24)n(C)c1', 'growth inhibition', '%', 81.2),
  ('Fc1cccc(-c2nnc(-c3cccc4ccccc34)o2)c1', 'growth inhibition', '%', -49.8),
  ('COc1cc(C(=O)OCCOC(=O)c2ccc(O)c(OC)c2)ccc1O', 'growth inhibition', '%', -25.5),
  ('O=C(NCCCl)Nc1[nH]c(=O)ncc1I', 'growth inhibition', '%', -10.3),
  ('Nc1nc2c(c(=O)[nH]1)NC(CCNc1ccc(C(=O)NC(CCC(=O)O)C(=O)O)cc1)CN2 (stereo not given)', 'growth inhibition', '%', 19.6),
  ('Cc1ccccc1CN', 'growth inhibition', '%', 1.05),
  ('COc1cc(Cl)ccc1NC(=O)Oc1ccc2ccccc2c1', 'growth inhibition', '%', 9.2),
  ('CCCC1CCCCC1O (stereo not given)', 'growth inhibition', '%', 7.15),
  ('CC(C)(C)c1[nH]ncc1CCC(=O)Nc1ccc(Cl)cc1Cl', 'growth inhibition', '%', 1.1),
  ('CCOc1ccc(NC(=O)CC2SC(N)=NC2=O)cc1 (stereo not given)', 'growth inhibition', '%', 8.5),
  ('O=C(/C=C/c1ccccc1)/C=N/N1C(=S)N(c2ccccc2)C(=Nc2ccccc2)C1=Nc1ccccc1', 'growth inhibition', '%', -20.2),
  ('O=C(CN(C(=O)OC12CC3CC(CC(C3)C1)C2)C(=O)OC12CC3CC(CC(C3)C1)C2)Oc1ccc([N+](=O)[O-])cc1', 'growth inhibition', '%', 31.8),
  ('Cc1[nH]c(=O)c(C#N)c(C)c1-c1ccccc1', 'growth inhibition', '%', 4.9),
  ('CCOC(OCC)C(=O)NNC(C)C', 'growth inhibition', '%', -39.9),
  ('CC1=CC(C)(C)NC(=S)N1c1cccc2c(S(=O)(=O)O)cccc12', 'growth inhibition', '%', -32.3);
